test system: RAW264.7; assay: Cytotoxicity against mouse RAW264.7 cells assessed as cell viability up to 100 uM; assay type: cell-based
QUANTITY_KIND: Activity

| MOLECULE | OBSERVED_MEASUREMENT |
| --- | --- |
| CNC(=N)NCCC[C@H](N)C(=O)O [TILARGININE] | Non-toxic |
| CC(C)=CCC[C@]1(C)[C@@H](CC=C(C)C)C[C@]2(C)C(=O)C3=C(O[C@@H](C(C)(C)O)C3)[C@@]1(C(=O)C(C)C)C2=O | Non-toxic |
| CC[C@H](C)C(=O)[C@]12C(=O)[C@](C)(C[C@H](CC=C(C)C)[C@@]1(C)CCC=C(C)C)C(=O)C1=C2O[C@H](C(C)(C)O)C1 | Non-toxic |
| CC[C@H](C)C(=O)[C@@]12C(=O)C3=C(O[C@H](C(C)(C)O)C3)[C@@](C)(C[C@H](CC=C(C)C)[C@@]1(C)CCC=C(C)C)C2=O | Non-toxic |
| CC(C)=CCC[C@]1(C)[C@@H](CC=C(C)C)C[C@@]2(C)C(=O)[C@]1(C(=O)C(C)C)C(=O)C1=C2O[C@@H](C(C)(C)O)C1 | Non-toxic |

Moving on to the next molecule.
Asked: Consider the molecule CC(C)=CCC[C@]1(C)[C@@H](CC=C(C)C)C[C@@]2(C)C(=O)[C@]1(C(=O)C(C)C)C(=O)C1=C2O[C@H](C(C)(C)O)C1 and give its measured Activity.
Given back: Non-toxic

---

tested on: RAW264.7; assay: Cytotoxicity against mouse RAW264.7 cells assessed as cell viability up to 100 uM; assay type: cell-based

| ENTRY_SMILES | Activity |
| --- | --- |
| CC(C)=CCC[C@]1(C)[C@@H](CC=C(C)C)C[C@]2(C)C(=O)C3=C(O[C@H](C(C)(C)O)C3)[C@@]1(C(=O)C(C)C)C2=O | Non-toxic |
| CC[C@H](C)C(=O)[C@@]12C(=O)C3=C(O[C@@H](C(C)(C)O)C3)[C@@](C)(C[C@H](CC=C(C)C)[C@@]1(C)CCC=C(C)C)C2=O | Non-toxic |
| CC[C@H](C)C(=O)[C@]12C(=O)[C@](C)(C[C@H](CC=C(C)C)[C@@]1(C)CCC=C(C)C)C(=O)C1=C2O[C@@H](C(C)(C)O)C1 | Non-toxic |
